B1: HDV Ribozyme (parent)
chain: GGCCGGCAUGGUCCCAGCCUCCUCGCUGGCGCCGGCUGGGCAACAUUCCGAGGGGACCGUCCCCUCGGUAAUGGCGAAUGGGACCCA

variants of: B1; experiment: self-cleavage, relative activity (ratio to wild type); higher = more cleavage; co-transcriptional
reported_metric: self-cleavage
Hey, just send me the number, nothing else.

Solved entries (count: 4):
G74C U79G | 0.302
C24G A70U | 0.0627
C58A G82A | 0.614
G53U C66G | 0.821

// query May I ask what self-cleavage has been recorded for G74A C75G ?
// result 0.17

// query Returns the measured self-cleavage for the input variant. Input: G28C C44G
// result 0

// query For the variant shown here, G11A G73U , give the reported self-cleavage.
// result 0.0769

// query Any idea what self-cleavage was measured for C7G C15U ?
// result 0.0978

// query What does the record list as self-cleavage for G40C C75A ?
// result 0.0326

// query I am curious: what self-cleavage value has been reported for G11U G35A ?
// result 0.241

// query Query (variant): U20C A77G ; field requested: self-cleavage
// result 0.208

// query Which value of self-cleavage has been reported for A51C C61A in the records?
// result 1.05
